Test system: MOLT-4 leukemia
Test: NCI-60 one-dose screen, 48 h (100 = growth as untreated, 0 = no growth, -100 = all killed)
Details: 10 µM unless noted
The panel holds about 83,000 compounds, 20% with a hit somewhere; the sample as a whole holds those more often.
Listing: growth of selected molecules
Just the number please, in %, no unit attached.

Known results for molecules:
{"Molecule": "CCNc1nc(-c2ccc(Cl)c(OC)c2)c(-c2ccnc(NCCNS(=O)(=O)c3ccc(Cl)cc3)n2)s1", "Target or system": "MOLT-4 leukemia", "Quantity measured": "growth", "Unit abbrev": "%", "Observed result": 11.2}
{"Molecule": "Cc1c(-c2cnc3ccc(Cl)cc3c2C(=O)O)nnn1-c1ccc(Cl)cc1", "Target or system": "MOLT-4 leukemia", "Quantity measured": "growth", "Unit abbrev": "%", "Observed result": 94.1}
{"Molecule": "CCN1C(=O)N(CC)C2C1NN=c1s/c(=C\\c3ccc(F)cc3)c(=O)n12 (stereo unspecified)", "Target or system": "MOLT-4 leukemia", "Quantity measured": "growth", "Unit abbrev": "%", "Observed result": 14.3}
{"Molecule": "Clc1ccc(C2=Nn3c(nnc3-c3cc(Cl)cc(Cl)c3Cl)SC2)cc1", "Target or system": "MOLT-4 leukemia", "Quantity measured": "growth", "Unit abbrev": "%", "Observed result": 26.7}
{"Molecule": "C#CCOc1ccc(C2=NN(CCCC)C3N=C(Cl)c4ncn(CCCC)c4N23)cc1OCC#C (stereo unspecified)", "Target or system": "MOLT-4 leukemia", "Quantity measured": "growth", "Unit abbrev": "%", "Observed result": 65.3}

Return reported growth. Input molecule: COc1ccc(Cn2cc3c(c2)-c2oncc2CC3)cc1
58

Return reported growth. Input molecule: O=C1/C(=C/c2cccc(Br)c2)COc2ccc(O)c(O)c21
2.59

Return reported growth. Input molecule: CCN1C(=O)N(CC)C2C1NC(=S)N2/N=C/C=C/c1ccccc1 (stereo unspecified)
8.08

Return reported growth. Input molecule: C=C(C)[C@@H]1CC[C@]2(C(=O)NC(C)=O)CC[C@]3(C)[C@H](CC[C@@H]4[C@@]5(C)CCCNC(C)(C)[C@@H]5CC[C@]43C)[C@@H]12
-13.1

Return reported growth. Input molecule: C=C(CNCCO)[C@@H]1CC[C@]2(CO)CC[C@]3(C)[C@H](CC[C@@H]4[C@@]5(C)CCC(NCCO)C(C)(C)[C@@H]5CC[C@]43C)[C@@H]12 (stereo partly specified)
39.9

Return reported growth. Input molecule: Cn1cc(-c2csc(-c3cn(C)c4ccc(F)cc34)n2)c2cnccc21
-36.1

Ref: PubChem BioAssay (NCI)
